- System: stable HCV 4a RLuc replicon cells (genotype 4a ED43 replicon)
- protocol.details: HCV replicon assay, genotype 4a (stable)
- Type: cell-based
- experimental.conditions: Hepatitis C virus, read-out: 4a (s) (nM)
// returns class 0 unless EC50 is strictly below 0.02 nM, in which case class 1

Here are 4 compounds together with their reported answers.
compound	label.class
COC[C@H]1C[C@@H](c2ncc(-c3ccc(-c4ccc(-c5cnc([C@@H]6CC[C@H](C)N6C(=O)[C@@H](NC(=O)OC)C6CCOCC6)[nH]5)cc4)cc3)[nH]2)N(C(=O)[C@@H](NC(=O)OC)C(C)C)C1 [Example AL]	class 0
COC[C@H]1C[C@@H](c2nc(Cl)c(-c3ccc(-c4ccc(-c5[nH]c([C@@H]6CC[C@H](C)N6C(=O)[C@@H](NC(=O)OC)C(C)C)nc5Cl)cc4)cc3)[nH]2)N(C(=O)[C@@H](NC(=O)OC)C(C)C)C1 [Example AG]	class 1
COC[C@H]1C[C@@H](c2ncc(-c3ccc(-c4ccc(-c5cnc([C@@H]6CC[C@H](C)N6C(=O)[C@@H](NC(=O)OC)C6CCOCC6)[nH]5)cc4)cc3)[nH]2)N(C(=O)[C@@H](NC(=O)OC)C2CCOCC2)C1 [Example AJ]	class 0
COC[C@H]1C[C@@H](c2nc(Cl)c(-c3ccc(-c4ccc(-c5cnc([C@@H]6CC[C@H](C)N6C(=O)[C@@H](NC(=O)OC)C(C)C)[nH]5)cc4)cc3)[nH]2)N(C(=O)[C@@H](NC(=O)OC)C(C)C)C1 [AI]	class 1

Now look at this entry.
Regarding COC[C@H]1C[C@@H](c2ncc(-c3ccc(-c4ccc(-c5cnc([C@@H]6CC[C@H](C)N6C(=O)[C@@H](NC(=O)OC)C(C)C)[nH]5)cc4)cc3)[nH]2)N(C(=O)[C@@H](NC(=O)OC)C2CCOCC2)C1 [Example AN] , kindly confirm whether its EC50 is beneath 0.02 nM.
class 0

---

- Test system: stable HCV 4a RLuc replicon cells (genotype 4a ED43 replicon)
- protocol.details: HCV replicon assay, genotype 4a (stable)
- Format: cell-based
- experimental.conditions: Hepatitis C virus, read-out: 4a (s)
metric.name: EC50

compound.structure.string	system.name	EC50
COC[C@H]1C[C@@H](c2ncc(-c3ccc(-c4ccc(-c5cnc([C@@H]6CC[C@H](C)N6C(=O)[C@@H](NC(=O)OC)C6CCOCC6)[nH]5)cc4)cc3)[nH]2)N(C(=O)[C@@H](NC(=O)OC)C2CCOCC2)C1	stable HCV 4a RLuc replicon cells (genotype 4a ED43 replicon)	0.1 to 0.999 nM
COC[C@H]1C[C@@H](c2nc(Cl)c(-c3ccc(-c4ccc(-c5cnc([C@@H]6CC[C@H](C)N6C(=O)[C@@H](NC(=O)OC)C(C)C)[nH]5)cc4)cc3)[nH]2)N(C(=O)[C@@H](NC(=O)OC)C(C)C)C1	stable HCV 4a RLuc replicon cells (genotype 4a ED43 replicon)	< 0.1 nM
COC[C@H]1C[C@@H](c2ncc(-c3ccc(-c4ccc(-c5cnc([C@@H]6CC[C@H](C)N6C(=O)[C@@H](NC(=O)OC)C6CCOCC6)[nH]5)cc4)cc3)[nH]2)N(C(=O)[C@@H](NC(=O)OC)C(C)C)C1	stable HCV 4a RLuc replicon cells (genotype 4a ED43 replicon)	< 0.1 nM
COC[C@H]1C[C@@H](c2nc(Cl)c(-c3ccc(-c4ccc(-c5[nH]c([C@@H]6CC[C@H](C)N6C(=O)[C@@H](NC(=O)OC)C(C)C)nc5Cl)cc4)cc3)[nH]2)N(C(=O)[C@@H](NC(=O)OC)C(C)C)C1	stable HCV 4a RLuc replicon cells (genotype 4a ED43 replicon)	< 0.1 nM
COC[C@H]1C[C@@H](c2ncc(-c3ccc(-c4ccc(-c5cnc([C@@H]6CC[C@H](C)N6C(=O)[C@@H](NC(=O)OC)C(C)C)[nH]5)cc4)cc3)[nH]2)N(C(=O)[C@@H](NC(=O)OC)C2CCOCC2)C1	stable HCV 4a RLuc replicon cells (genotype 4a ED43 replicon)	< 0.1 nM

// moving on: another record for EC50
Tell me reported EC50 for COC[C@H]1C[C@@H](c2ncc(-c3ccc(-c4ccc(-c5[nH]c([C@@H]6CC[C@H](C)N6C(=O)[C@@H](NC(=O)OC)C(C)C)nc5Cl)cc4)cc3)[nH]2)N(C(=O)[C@@H](NC(=O)OC)C(C)C)C1 , tested with stable HCV 4a RLuc replicon cells (genotype 4a ED43 replicon).
< 0.1 nM
